The measurements presented in this section are drawn from ChEMBL document CHEMBL1143558.

Target Under Test: Peroxisome proliferator-activated receptor gamma (Homo sapiens, UniProt P37231)
Assay Overview: Effective concentration against human Peroxisome proliferator activated receptor gamma in Gal4 transactivation assay
Value Type: pEC50
Lab note — pEC50 values are minus log10 of concentrations in M.

INSERT INTO measurements (smiles_data, target_under_test, reported_result) VALUES
  ('CCCc1cc(C(=O)CC)cc(CCC)c1OC(C)(C)C(=O)O', 'Peroxisome proliferator-activated receptor gamma (Homo sapiens, UniProt P37231)', 5.89);

Okay, next one:
response.value for CCCc1cc2c(OC)noc2c(CCC)c1OC(C)(C)C(=O)O (field: pEC50) = 5.96

====

pIC50: recorded values
Target Under Test: Peroxisome proliferator-activated receptor gamma (Homo sapiens)
Sequence (P37231 whole entry): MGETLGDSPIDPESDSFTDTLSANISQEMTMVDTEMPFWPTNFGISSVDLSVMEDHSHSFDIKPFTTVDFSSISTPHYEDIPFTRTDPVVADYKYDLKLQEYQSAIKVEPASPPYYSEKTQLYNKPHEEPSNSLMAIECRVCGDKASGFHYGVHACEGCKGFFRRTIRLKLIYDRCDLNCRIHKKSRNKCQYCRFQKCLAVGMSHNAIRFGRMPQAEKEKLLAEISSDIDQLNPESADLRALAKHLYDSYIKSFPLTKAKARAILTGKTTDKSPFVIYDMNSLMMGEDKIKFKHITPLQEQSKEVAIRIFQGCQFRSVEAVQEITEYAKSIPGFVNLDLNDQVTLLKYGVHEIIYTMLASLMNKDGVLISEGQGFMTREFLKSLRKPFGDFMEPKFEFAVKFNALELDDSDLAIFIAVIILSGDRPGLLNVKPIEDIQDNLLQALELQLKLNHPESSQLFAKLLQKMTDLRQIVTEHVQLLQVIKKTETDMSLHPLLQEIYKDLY
Assay Overview: Inhibition of human Peroxisome proliferator activated receptor gamma binding
The read-out pIC50 is expressed as -log10 of concentration in moles per litre.

INSERT INTO measurements (smiles_data, target_under_test, value_type, reported_result) VALUES
  ('CCCc1cc2c(OC)noc2c(CCC)c1OC(C)(C)C(=O)O', 'Peroxisome proliferator-activated receptor gamma (Homo sapiens)', 'pIC50', 5.79),
  ('CCCc1cc(C(=O)CC)cc(CCC)c1OC(C)(C)C(=O)O', 'Peroxisome proliferator-activated receptor gamma (Homo sapiens)', 'pIC50', 5.91);

Now consider a different compound.
For CCCc1cc2c(C(F)(F)F)noc2c(CCC)c1OC(C)(C)C(=O)O the compound record lists pIC50 as 5.80

====

Target Under Test: Peroxisome proliferator-activated receptor alpha (Homo sapiens, UniProt Q07869)
Sequence (Q07869 whole entry): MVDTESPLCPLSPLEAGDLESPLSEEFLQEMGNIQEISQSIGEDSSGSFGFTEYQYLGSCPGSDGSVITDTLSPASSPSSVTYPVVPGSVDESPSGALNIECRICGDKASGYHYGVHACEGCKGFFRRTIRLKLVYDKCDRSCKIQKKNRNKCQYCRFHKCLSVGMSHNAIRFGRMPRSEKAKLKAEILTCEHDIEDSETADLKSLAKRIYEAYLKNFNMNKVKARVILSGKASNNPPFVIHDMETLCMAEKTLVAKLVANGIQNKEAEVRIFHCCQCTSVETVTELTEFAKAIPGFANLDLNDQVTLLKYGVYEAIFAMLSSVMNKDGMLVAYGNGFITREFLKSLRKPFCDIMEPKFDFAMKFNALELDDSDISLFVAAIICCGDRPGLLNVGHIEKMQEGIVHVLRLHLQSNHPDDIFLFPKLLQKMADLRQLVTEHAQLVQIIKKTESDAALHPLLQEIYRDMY
Assay Overview: Inhibition of human Peroxisome proliferator activated receptor alpha binding
pIC50: −log10 of the molar value.
Hi, to clarify the labels: True covers pIC50 from 6 upward, False covers anything below 6.

Answered cases to consult:
INSERT INTO measurements (compound, discrete_label) VALUES
  ('CCCc1cc(C(=O)CC)cc(CCC)c1OC(C)(C)C(=O)O', 'True'),
  ('CCCc1cc2c(C(F)(F)F)noc2c(CCC)c1OC(C)(CC)C(=O)O (stereo not drawn)', 'True'),
  ('CCCc1cc2c(C(F)(F)F)noc2c(CCC)c1OCC(C)(C)C(=O)O', 'False'),
  ('CC(C)(Oc1ccc(C(=O)c2ccc(Cl)cc2)cc1)C(=O)O', 'False'),
  ('CCCc1c(OC(C)(C)C(=O)O)ccc2c(C(F)(F)F)noc12', 'False');

As a next step, examine the compound that follows.
Evaluate CCCc1cc2c(C(F)(F)F)noc2c(CCC)c1OC(C)(C)C(=O)O : pIC50 at minimum 6?
True
